molecular target: T1, fluorescently quenched α-gliadin hexapeptide analogue QXL520-PQPQLP-K(5-FAM)-NH2
T1 chain: PQPQLP
measurementKind: Fold Change in Activity of PQ Hydrolysis Relative to Wild Type Kumamolysin-As

>  <protein>
Kumamolisin-As S354N, D358G, D368H (protein) AAPTAYTPLDVAQAYQFPEGLDGQGQCIAIIELGGGYDEASLAQYFASLGVPAPQVVSVSVDGASNQPTGDPSGPDGEVELDIEVAGALAPGAKFAVYFAPNTDAGFLDAITTAIHDPTLKPSVVSISWGGPEDSWTSAAIAAMNRAFLDAAALGVTVLAAAGDNGSTGGEQDGLYHVHFPAASPYVLACGGTRLVASGGRIAQETVWNDGPDGGATGGGVSRIFPLPAWQEHANVPPSANPGASSGRGVPDLAGNADPATGYEVVIDGEATVIGGTSAVAPLFAALVARINQKLGKAVGYLNPTLYQLPADVFHDITEGNNDIANRAQIYQAGPGWDPCTGLGSPIGVRLLQALLPSASQPQPGSTENLYFQSGALEHHHHHH

>  <testValue>
9 fold

$$$$

Source: patent US20190083585
